As an illustration, consider measured GI50 for compounds on HCT 116 (colon) cells.
EXPERIMENTAL_ENDPOINT: GI50 (µM)

>>> print(df.to_string())
                                        smi  experimental_endpoint  observed_result
0  COc1ccc(/C(=C\c2ccc(/C=C/C(=O)NCCCCCC(=O)NO)cc2)C(=O)NC2CC2)cc1F                   GI50               11
1  O=C(NC1CC1)/C(=C/c1ccc(C(=O)NCc2ccc(C(=O)NO)cc2)cc1)c1ccccc1F                   GI50               31
2  O=C(/C=C/c1cccc(/C(=C\c2ccc(F)cc2)C(=O)NC2CC2)c1)NO                   GI50               29
3  O=C(NC1CC1)/C(=C/c1ccc(C(=O)NO)cc1)c1ccccc1                   GI50               17

* * *

Values of GI50 reported for HCT 116 (colon) cells appear below.
EXPERIMENTAL_ENDPOINT: GI50 (µM)

>>> print(df.to_string())
                                   molecule  experimental_endpoint  observed_result
0  Nc1ccccc1NC(=O)c1ccc(C=C(C(=O)NC2CC2)c2ccccc2)cc1 [Example 107]                   GI50                2
1  O=C(/C=C/c1ccc(C=C(C(=O)NC2CC2)c2cccs2)cc1)NCCCCCC(=O)NO (stereo in doubt) [Example 83]                   GI50                6
2  O=C(/C=C/c1ccc(CNC(=O)c2ccc(/C=C(/C(=O)NC3CC3)c3ccc4c(c3)OCO4)cc2)cc1)NO [Example 147]                   GI50               20
3  COc1ccc(/C(=C\c2ccc(C(=O)NO)cc2)C(=O)NC2CC2)cc1 [Example 100]                   GI50               58
4  COc1ccc(/C(=C\c2ccc(C(=O)Nc3ccccc3N)cc2)C(=O)NC2CC2)cc1OC [Example 119]                   GI50               32
5  O=C(NC1CC1)/C(=C/c1ccc(C(=O)NCc2ccc(C(=O)NO)cc2)cc1)c1ccc2c(c1)OCO2 [Example 157]                   GI50               19
6  O=C(NC1CC1)/C(=C/c1ccc(C(=O)NCc2ccc(C(=O)NO)cc2)cc1)c1ccc(C(F)(F)F)cc1 [Example 158]                   GI50               30

* * *

Tested on: HDAC (Mouse Liver Extract)
Construct: Mouse liver enzyme (10 mg/ml) was diluted 1:6 with HDAC buffer
PROTOCOL: HDAC inhibition assay using Boc-Lys(Ac)-AMC substrate, mouse liver enzyme
Format: biochemical
DETAILS: 10 μM
HDAC Inhibition % (10 μM) reference
EXPERIMENTAL_ENDPOINT: HDAC Inhibition % (10 μM) (%)

In [3]: df
Out[3]:
                                         smi      experimental_endpoint  observed_result
 0  CC(C)NC(=O)/C(=C/c1ccc(/C=C/C(=O)NO)cc1)c1ccc(F)c(F)c1  HDAC Inhibition % (10 μM)             95.0
 1  O=C(/C=C/c1ccc(/C=C(/C(=O)NC2CC2)c2ccsc2)cc1)NO  HDAC Inhibition % (10 μM)             95.5
 2  O=C(/C=C/c1ccc(/C=C(/C(=O)NC2CC2)c2ccccc2)cc1)NCc1ccc(C(=O)NO)cc1  HDAC Inhibition % (10 μM)             91.6
 3  O=C(/C=C/c1ccc(/C=C(/C(=O)NC2CC2)c2ccc3c(c2)OCO3)cc1)NCCCCCC(=O)NO  HDAC Inhibition % (10 μM)            100.0
 4  NC(=O)/C(=C/c1ccc(/C=C/C(=O)NO)cc1)c1ccccc1  HDAC Inhibition % (10 μM)             97.8
 5  CC(C)NC(=O)/C(=C/c1ccc(C(=O)Nc2ccccc2N)cc1)c1ccc(F)cc1  HDAC Inhibition % (10 μM)             57.4
 6  O=C(NC1CC1)/C(=C/c1ccc(C(=O)NCc2ccc(C(=O)NO)cc2)cc1)c1ccccc1  HDAC Inhibition % (10 μM)             88.0
 7  Nc1ccccc1NC(=O)c1ccc(/C=C(/CNC2CC2)c2ccc(F)cc2)cc1  HDAC Inhibition % (10 μM)             62.3
 8  O=C(NC1CC1)/C(=C/c1ccc(C(=O)NCc2ccc(C(=O)NO)cc2)cc1)c1cccc(F)c1  HDAC Inhibition % (10 μM)             98.1
 9  Nc1ccccc1NC(=O)c1ccc(/C=C(/C(=O)NC2CC2)c2ccc(O)cc2)cc1  HDAC Inhibition % (10 μM)             55.1
10  COc1ccc(/C(=C\c2ccc(C(=O)Nc3ccccc3N)cc2)C(=O)NC2CC2)c(OC)c1  HDAC Inhibition % (10 μM)             59.3
11  COc1ccc(/C(=C\c2ccc(/C=C/C(=O)NO)cc2)C(=O)NC(C)C)cc1F  HDAC Inhibition % (10 μM)             99.1
12  COc1ccc(/C(=C\c2ccc(C(=O)NO)cc2)C(=O)NC2CC2)cc1  HDAC Inhibition % (10 μM)             76.2
13  O=C(/C=C/c1ccc(CNC(=O)c2ccc(/C=C(/C(=O)NC3CC3)c3ccc4c(c3)OCO4)cc2)cc1)NO  HDAC Inhibition % (10 μM)            100.0
14  Cc1ccccc1/C(=C\c1ccc(C(=O)Nc2ccccc2N)cc1)C(=O)NC1CC1  HDAC Inhibition % (10 μM)             56.7
15  Nc1ccccc1NC(=O)c1ccc(/C=C(/C(=O)N2CCOCC2)c2ccc(F)cc2)cc1  HDAC Inhibition % (10 μM)             67.9

Origin of values: patent US8450525B2
